Origin of the recorded values: patent US4312874A

# ASSAY OVERVIEW: Mouse blood levels of Example 1 following oral and subcutaneous administration
# Type: in vivo, albino male mice
# MEASUREMENT PARAMETERS: sc, subcutaneous 50 mg/kg, 60 min, read-out: blood conc.
ENDPOINT: concentration at 1 h

Which value of concentration at 1 h has been reported for CC(=O)C=C(C)CC1OCC(CC2OC2C(C)C(C)O)C(O)C1O (stereo not shown) in the records?
< 3000 ng/mL

* * *

# ASSAY OVERVIEW: Mean serum concentrations in neonatal piglets after intramuscular or oral administration
# Type: in vivo
# MEASUREMENT PARAMETERS: pig, im, i.m. 50 mg/kg, 60'
ENDPOINT: concentration at 1 h (ng/mL)
Give bare numbers, in ng/mL.

So what's the measured concentration at 1 h for this one? CCCCC(=O)C=C(C)CC1OCC(CC2OC2C(C)C(C)O)C(O)C1O (stereo not shown) [Example 3]
4300

* * *

# ASSAY OVERVIEW: Mean serum concentrations in neonatal piglets after intramuscular or oral administration
# Format: in vivo
# MEASUREMENT PARAMETERS: pig, im, i.m. 50 mg/kg, 3hr
ENDPOINT: concentration at 3 h (ng/mL)
Give bare numbers, in ng/mL.

Any idea what its concentration at 3 h is? The compound is CCCCC(=O)C=C(C)CC1OCC(CC2OC2C(C)C(C)O)C(O)C1O (stereo not shown)
1200

* * *

# ASSAY OVERVIEW: Mouse blood levels of Example 1 following oral and subcutaneous administration
# Assay type: in vivo, albino male mice
# MEASUREMENT PARAMETERS: oral 50 mg/kg, 5 min, read-out: blood conc.
ENDPOINT: concentration at 5 min (ng/mL)
Give bare numbers, in ng/mL.

Request the reported concentration at 5 min associated with CC(=O)C=C(C)CC1OCC(CC2OC2C(C)C(C)O)C(O)C1O (stereo not shown) [Example 1]
5900

* * *

# ASSAY OVERVIEW: Mean serum concentrations in milk weaned piglets after oral administration
# Type: in vivo
# MEASUREMENT PARAMETERS: pig, p.o. 50 mg/kg, 4 hr
ENDPOINT: concentration at 4 h (ng/mL)
Give bare numbers, in ng/mL.

Give the measured concentration at 4 h of CCCCC(=O)C=C(C)CC1OCC(CC2OC2C(C)C(C)O)C(O)C1O (stereo not shown) [Example 3] .
200

* * *

# ASSAY OVERVIEW: Mean serum concentrations in neonatal piglets after intramuscular or oral administration
# Assay type: in vivo
# MEASUREMENT PARAMETERS: pig, po, p.o. 50 mg/kg, 3hr
ENDPOINT: concentration at 3 h
Could you write the number and then its unit?

Tell me the measured concentration at 3 h of CCCCC(=O)C=C(C)CC1OCC(CC2OC2C(C)C(C)O)C(O)C1O (stereo not shown) [Example 3] , please.
600 ng/mL

* * *

# ASSAY OVERVIEW: Mouse blood levels of Example 1 following oral and subcutaneous administration
# Assay type: in vivo, albino male mice
# MEASUREMENT PARAMETERS: sc, subcutaneous 50 mg/kg, 20 min, read-out: blood conc.
ENDPOINT: concentration at 20 min
State the result as a value with its unit after it.

Which concentration at 20 min value belongs to CC(=O)C=C(C)CC1OCC(CC2OC2C(C)C(C)O)C(O)C1O (stereo not shown) ?
9.8 µg/mL
